Each item that follows carries a reported selectivity ratio.
# test description: Protective index as the ratio of TD50 value against scMET to that of ED50 value against scMET.
# Type: ADME
# condition details: read-out: PI
Form: value (number only, do not type unit).

Worked examples, 3 molecules total:
>>> df
                        molecule  observed_property  numeric_result
0  Cc1ccc(NC(=O)c2ccc(N)cc2)cc1C  selectivity ratio             2.4
1   Cc1cccc(NC(=O)c2ccc(N)cc2)c1  selectivity ratio            1.62
2      Nc1ccc(C(=O)Nc2ccccc2)cc1  selectivity ratio            1.88

Item CC(NC(=O)c1ccc(N)cc1)c1ccccc1 (centres undefined) has what recorded selectivity ratio? 4.1
